The origin of these recorded values is PubChem BioAssay AID1508612.

Recorded Papp values for a group of compounds are listed next.
# PROCEDURE_TEXT: passive permeability, PAMPA, ADME assay (AID 1508612)
# CONDITION_CONTEXT: pH 7.4, 30.0 min, 50.0 µM
Reply numerically in ×10⁻⁶ cm/s, unit not repeated.

{"COMPOUND": "O=C(NCC1CCOCC1)C1CC(=O)N(c2n[nH]c3cc(Br)ccc23)C1 (stereo unspecified)", "UNIT_LABEL": "×10⁻⁶ cm/s", "EXPERIMENTAL_VALUE": 16.1}
{"COMPOUND": "O=C(O)c1ccc(O)c2ncc(N3CCCN(CCc4cccc5ccccc45)CC3)cc12", "UNIT_LABEL": "×10⁻⁶ cm/s", "EXPERIMENTAL_VALUE": 974}
{"COMPOUND": "Cc1cc(C)nc(NS(=O)(=O)c2ccc(NC(=S)NC(=O)COc3ccc(Br)cc3Cl)cc2)n1", "UNIT_LABEL": "×10⁻⁶ cm/s", "EXPERIMENTAL_VALUE": 457}
{"COMPOUND": "Cc1cc(Nc2ccc(Br)c(C)c2)n2nc(C)nc2n1", "UNIT_LABEL": "×10⁻⁶ cm/s", "EXPERIMENTAL_VALUE": 874}

Specify Papp for Cc1ccc(S(=O)(=O)NC2CCCCC2)cc1 and stop.
206

Specify Papp for COC(=O)c1ccccc1C(=O)Nc1nc(-c2ccccc2)cs1 and stop.
896

Specify Papp for Cc1ccc(NC(=O)NCC2CCN(Cc3cccc(Cl)c3)CC2)cc1Cl and stop.
746

Specify Papp for Cc1ccc(S(=O)(=O)NCCC(=O)Nc2nc(-c3ccccc3)cs2)cc1 and stop.
861

Specify Papp for CCOC(=O)N1CCc2c(sc(NCc3ccc(N(C)C)cc3)c2C(=O)Nc2ccc(OC)cc2)C1 and stop.
58.5

Specify Papp for Cc1ccc(C(=O)NC2CCN(c3cnn(CC4CC4)c(=O)c3)CC2)cc1C and stop.
473

====

# PROCEDURE_TEXT: passive permeability, PAMPA, ADME assay (AID 1508612)
# CONDITION_CONTEXT: pH 7.4, 30.0 min, 50.0 µM
Classification field: enter y for Papp values not below 200 ×10⁻⁶ cm/s, n for values below it.

{"COMPOUND": "COc1cccc(-c2nc(-c3cc4cc(OC)ccc4[nH]c3=O)no2)c1", "CLASS": "y"}

Given O=C(Nc1ccc([S+](=O)([O-])Nc2nccs2)cc1)c1ncn[nH]1 , state whether its Papp is at least 200 ×10⁻⁶ cm/s.
n

Given COc1cccc(CNc2ccc(S(=O)(=O)Nc3nccs3)cc2)c1OC , state whether its Papp is at least 200 ×10⁻⁶ cm/s.
y

Given Oc1ccc(NCc2ccccc2OCc2ccccc2Cl)cc1 , state whether its Papp is at least 200 ×10⁻⁶ cm/s.
n

Given Cc1ccnc(NC(=S)N2CCC(c3cccc(C(F)(F)F)c3)CC2)c1 , state whether its Papp is at least 200 ×10⁻⁶ cm/s.
y

Given N#Cc1ccc(-c2ccc(CNc3ccc(C4CCNCC4)cc3)o2)cc1 , state whether its Papp is at least 200 ×10⁻⁶ cm/s.
y

Given O=C1c2ccccc2C2=Nc3ccccc3SC(c3ccccc3F)C12 (configuration not stated) , state whether its Papp is at least 200 ×10⁻⁶ cm/s.
n

Given CCCc1ccc(-c2csc(NC(=O)c3ccncc3NS(=O)(=O)c3ccc(C)cc3)n2)cc1 , state whether its Papp is at least 200 ×10⁻⁶ cm/s.
y

Given Cc1ccccc1C(=O)N1CCc2cc(-c3nc(NC(=O)Cc4ccc5c(c4)OCCO5)sc3C)ccc21 , state whether its Papp is at least 200 ×10⁻⁶ cm/s.
y

Given COC(=O)CNC(=O)c1nc(-c2ccc([S+](C)(=O)[O-])cc2)c2ccccn12 , state whether its Papp is at least 200 ×10⁻⁶ cm/s.
y
